The measurements presented in this section are drawn from the supplement of paper PMC11451515.

System: P12-Ichikawa
Test: AUC of viability dose-response curve (% viability x log10 dose units); higher = less sensitive
Settings: HPLM + 10% dialyzed FBS; 48 h
Kindly state AUC of viability dose-response curve for each of the entries shown.
Lab note: record just the number, no unit beside it.

Noted for O=[N+]([O-])c1cnc(Sc2nnc(O)n2-c2ccc3c(c2)OCCO3)s1 : its AUC of viability dose-response curve reads 390

Noted for Clc1ccccc1CN1CCc2sccc2C1 : its AUC of viability dose-response curve reads 348

Noted for C=CCn1c(=O)c2cnc(Nc3ccc(N4CCN(C)CC4)cc3)nc2n1-c1cccc(C(C)(C)O)n1 : its AUC of viability dose-response curve reads 336

Noted for CN(C)C/C=C/C(=O)Nc1cc2c(Nc3ccc(F)c(Cl)c3)ncnc2cc1O[C@H]1CCOC1 : its AUC of viability dose-response curve reads 337

Noted for CC(C)c1ccccc1Cc1cc(C(=O)Nc2ccc([S+](=O)([O-])c3ccccc3C(C)(C)C)cc2)c(O)c(O)c1O : its AUC of viability dose-response curve reads 451

Noted for Nc1nc(F)nc2c1ncn2[C@@H]1O[C@H](CO)[C@@H](O)[C@H]1O : its AUC of viability dose-response curve reads 293

Noted for CC(NCc1ccc2c(c1)[nH]/c(=N\C(=O)c1ccc(-c3cn[nH]c3)s1)n2CC(C)(C)O)C(C)(C)C (stereo not drawn) : its AUC of viability dose-response curve reads 350

Noted for CN(C)C[C@@H]1CC[N]2C=C(C3=C2C=CC=C3)C/4=C(/C(=O)NC4=O)C5=C[N](CCO1)C6=C5C=CC=C6 : its AUC of viability dose-response curve reads 458

---

Kindly state cell viability for each of the entries shown.
System: SEM cells
Assay: cell viability relative to DMSO control; higher = less cytotoxic
Settings: RPMI 5 mM glucose + 10% dialyzed FBS; 48 h; 0.00702 µM
Quick reminder: number only, in %, skip the unit.

Noted for C[N+](C)([O-])CCNc1ccc(NCC[N+](C)(C)[O-])c2c1C(=O)c1c(O)ccc(O)c1C2=O : its cell viability reads 93.8

Noted for O=C(CCc1ccc(O)cc1)c1c(O)cc(O)cc1O[C@@H]1O[C@H](CO)[C@@H](O)[C@H](O)[C@H]1O : its cell viability reads 89.6

Noted for CC(C)(C)NC(=O)[C@@H]1CN(Cc2cccnc2)CCN1C[C@@H](O)C[C@@H](Cc1ccccc1)C(=O)N[C@H]1c2ccccc2C[C@H]1O.O=S(=O)(O)O : its cell viability reads 109

Noted for CC1=C(CC/C(C)=C/CCC2=CCC(C3=CC(=O)OC3O)OC2O)C(C)(C)CCC1 (stereo not drawn) : its cell viability reads 119

Noted for CCN(C)C(=O)Oc1cccc([C@H](C)N(C)C)c1 : its cell viability reads 111

Noted for C[C@@H]1CC[C@@]2(OC1)OC1CC3C4CC=C5CC(O)CCC5(C)C4CCC3(C)C1[C@@H]2C (stereo partly drawn) : its cell viability reads 93.9

Noted for C[S+]([O-])c1ccc(-c2nc(-c3ccc(F)cc3)c(-c3ccncc3)[nH]2)cc1 (stereo not drawn) : its cell viability reads 89.8

Noted for CC(C)c1ccccc1Cc1cc(C(=O)Nc2ccc([S+](=O)([O-])c3ccccc3C(C)(C)C)cc2)c(O)c(O)c1O : its cell viability reads 120

Noted for CC(C)[C@H](CO)Nc1nc(Nc2cccc(Cl)c2)c2ncn(C(C)C)c2n1 : its cell viability reads 91.5

Noted for COc1cccc2c1C(=O)c1c(O)c3c(c(O)c1C2=O)C[C@@](O)(C(C)=O)C[C@@H]3O[C@H]1C[C@H](N)[C@H](O)[C@H](C)O1 : its cell viability reads 96.2

Noted for CN[S+](=O)([O-])CCc1ccc2[nH]cc(C3CCN(C)CC3)c2c1 : its cell viability reads 99.6

Noted for Oc1cc(O)cc(/C=C/c2ccc(O)c(O)c2)c1 : its cell viability reads 78.6

Noted for COc1ccnc(C[S+]([O-])c2nc3cc(OC(F)F)ccc3[nH]2)c1OC (stereo not drawn) : its cell viability reads 126
